These data points were gathered from ChEMBL document CHEMBL4014336.

target: UniProt P16232
Sequence (P16232 whole entry): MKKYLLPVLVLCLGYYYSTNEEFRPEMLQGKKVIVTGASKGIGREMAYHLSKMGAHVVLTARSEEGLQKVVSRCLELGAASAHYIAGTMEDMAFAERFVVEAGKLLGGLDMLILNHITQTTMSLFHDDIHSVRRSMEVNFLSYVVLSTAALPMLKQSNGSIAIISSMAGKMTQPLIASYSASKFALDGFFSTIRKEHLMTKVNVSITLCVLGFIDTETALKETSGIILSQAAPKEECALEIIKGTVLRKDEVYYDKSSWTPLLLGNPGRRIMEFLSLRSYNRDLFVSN
REPORTED_METRIC: pIC50
Answers are plain numbers, as −log10 of the molar value.

Return value of pIC50 for input O=C(CC1(c2ccccc2)C2CC3CC1CC(C2)C3O)N1CC(O)C1 (stereo in doubt; form 2) , no commentary.
6.30

----------
experiment: Protein binding in cynomolgus monkey plasma; type: ADME, cell-free, Macaca fascicularis; conditions: read-out: PPB (converted)
REPORTED_METRIC: fraction unbound
One number for each entry.

Return value of fraction unbound for input O=C(CC1(c2ccccc2)C2CC3CC1CC(C2)C3O)N1CC(O)C1 (stereo in doubt; form 2) , no commentary.
0.32

----------
assay: Metabolic stability in mouse liver microsomes assessed as parent compound remaining after 10 mins; format: ADME, microsome; conditions: liver microsomes, read-out: Stability
REPORTED_METRIC: remaining at 10 min (%)
Give bare numbers, in %.

COMPOUND	UNIT_SYMBOL	remaining at 10 min
O=C(CC1(c2ccc(C(F)(F)F)cc2)C2CC3CC1CC(C2)C3O)N1CC(O)C1 (racemic)	%	71
Cc1ccc(C2(CC(=O)N3CC(O)C3)C3CC4CC2CC(C3)C4O)cc1 (racemic)	%	72

Proceeding to the next compound to report its remaining at 10 min.
Return value of remaining at 10 min for input COc1ccc(C2(CC(=O)N3CC(O)C3)C3CC4CC2CC(C3)C4O)cc1 (racemic) , no commentary.
71
